Assignment: determine reported Luciferase Assay % Lum for the given compounds.
target: full-length P. pyralis luciferase (Photinus pyralis, UniProt P08659, K549A/L550V/N119G/N50D/S548I); assay type: cell-based
Sequence (P08659 whole entry N50D/N119G/S548I/K549A/L550V, looked up): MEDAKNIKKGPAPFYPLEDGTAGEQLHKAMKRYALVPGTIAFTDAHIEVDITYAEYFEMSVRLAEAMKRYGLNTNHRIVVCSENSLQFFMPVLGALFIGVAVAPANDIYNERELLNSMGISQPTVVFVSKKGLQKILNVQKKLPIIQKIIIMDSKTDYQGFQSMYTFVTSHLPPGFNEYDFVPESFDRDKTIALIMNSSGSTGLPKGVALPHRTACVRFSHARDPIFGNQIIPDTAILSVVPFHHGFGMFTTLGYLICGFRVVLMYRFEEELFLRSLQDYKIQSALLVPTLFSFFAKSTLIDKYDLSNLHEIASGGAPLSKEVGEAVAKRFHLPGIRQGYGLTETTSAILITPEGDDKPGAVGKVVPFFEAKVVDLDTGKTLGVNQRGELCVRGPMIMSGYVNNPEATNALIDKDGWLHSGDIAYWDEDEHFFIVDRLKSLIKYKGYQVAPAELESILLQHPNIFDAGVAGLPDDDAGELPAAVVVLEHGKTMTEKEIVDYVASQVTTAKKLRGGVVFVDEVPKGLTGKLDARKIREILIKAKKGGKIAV

Per the record, CC[C@H](CO)Nc1nc(NCc2ccccc2)c2ncn(C(C)C)c2n1 [Roscovitine] has Luciferase Assay % Lum of 97.39%

Per the record, CCN(CC)CCNC(=O)c1c(C)[nH]c(/C=C2\C(=O)Nc3ccc(F)cc32)c1C [SUNITINIB] has Luciferase Assay % Lum of 90.75%

Per the record, COc1nc(N)nc2c1ncn2[C@@H]1O[C@H](CO)[C@@H](O)[C@@H]1O [Nelarabine] has Luciferase Assay % Lum of 93.91%

* * *

biological target: FGF14:Nav1.6 C-tail complex (Homo sapiens, UniProt Q92915+Q9UQD0); construct: polymerase chain reaction (PCR) amplification of the FGF14 open reading frame (nt 1–855); C-terminal fragment of Nav1.6 (amino acids 1763–1976) fused with CD4ΔC-tail (amino acids 1–395); expressed in transfected cells; assay: Split-luciferase complementation assay (LCA) in Clone V double stable HEK293 cells; assay type: cell-based; settings: average of Set 1 and Set 2; normalized to 0.3% DMSO controls
Sequence (Q92915 1-252 isoform Q92915-2): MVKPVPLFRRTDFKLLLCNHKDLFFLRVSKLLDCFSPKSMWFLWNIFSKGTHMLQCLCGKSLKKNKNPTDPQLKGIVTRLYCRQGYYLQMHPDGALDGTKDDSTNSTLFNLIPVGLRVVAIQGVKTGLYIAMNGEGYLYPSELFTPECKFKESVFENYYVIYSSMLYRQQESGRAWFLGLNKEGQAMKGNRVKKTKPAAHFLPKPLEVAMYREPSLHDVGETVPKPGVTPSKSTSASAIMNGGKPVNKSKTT
Sequence (Q9UQD0 1763-1976 limits assumed): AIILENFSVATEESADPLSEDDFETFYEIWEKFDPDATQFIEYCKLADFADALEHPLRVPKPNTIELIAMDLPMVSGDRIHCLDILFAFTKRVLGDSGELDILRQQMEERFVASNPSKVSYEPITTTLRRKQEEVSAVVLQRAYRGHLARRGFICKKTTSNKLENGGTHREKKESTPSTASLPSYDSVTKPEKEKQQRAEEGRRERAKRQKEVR
Reported Endpoint: Split Luciferase Assay %Lum Avg
Write the numeric value and append its unit.

Short answer on FGF14:Nav1.6 C-tail complex (Homo sapiens, UniProt Q92915+Q9UQD0) for C[C@@H](CN1CC(=O)NC(=O)C1)N1CC(=O)NC(=O)C1 , Split Luciferase Assay %Lum Avg: 117.08%

Short answer on FGF14:Nav1.6 C-tail complex (Homo sapiens, UniProt Q92915+Q9UQD0) for CN(C)C[C@@H]1CCn2cc(c3ccccc32)C2=C(C(=O)NC2=O)c2cn(c3ccccc23)CCO1 [LY 333531, reference compound] , Split Luciferase Assay %Lum Avg: 34.34%

Short answer on FGF14:Nav1.6 C-tail complex (Homo sapiens, UniProt Q92915+Q9UQD0) for Cc1c[nH]c(-c2cnc(NCCNc3ccc(C#N)cn3)nc2-c2ccc(Cl)cc2Cl)n1 , Split Luciferase Assay %Lum Avg: 34.79%

* * *

Assignment: determine reported Split Luciferase Assay Z-score Set 1 for the given compounds.
target: FGF14:Nav1.6 C-tail complex (Homo sapiens, UniProt Q92915+Q9UQD0); construct: polymerase chain reaction (PCR) amplification of the FGF14 open reading frame (nt 1–855); C-terminal fragment of Nav1.6 (amino acids 1763–1976) fused with CD4ΔC-tail (amino acids 1–395); expressed in transfected cells; test: Split-luciferase complementation assay (LCA) in Clone V double stable HEK293 cells; format: cell-based; details: CC_NCI screening, biological replicate Set 1; normalized to on-plate 0.3% DMSO controls
Where a name gives a salt, the structure may show the parent alone.

Per the record, CC[C@]1(O)C[C@@H]2CN(CCc3c([nH]c4ccccc34)[C@@](C(=O)OC)(c3cc4c(cc3OC)N(C)[C@H]3[C@@](O)(C(=O)OC)[C@H](OC(C)=O)[C@]5(CC)C=CCN6CC[C@]43[C@@H]65)C2)C1 [Vinblastine sulfate] has Split Luciferase Assay Z-score Set 1 of 9.52

Per the record, Clc1ccc(C(c2ccccc2Cl)C(Cl)Cl)cc1 (stereo not shown) has Split Luciferase Assay Z-score Set 1 of -6.12

Per the record, CCCCCCCCc1ccc(CCC(N)(CO)CO)cc1 has Split Luciferase Assay Z-score Set 1 of -0.06

Per the record, Nc1ccccc1NC(=O)c1ccc(CNC(=O)OCc2cccnc2)cc1 has Split Luciferase Assay Z-score Set 1 of -2.96

Per the record, Nc1ncn([C@H]2C[C@H](O)[C@@H](CO)O2)c(=O)n1 [Decitabine, reference compound] has Split Luciferase Assay Z-score Set 1 of 6.88

Per the record, Cc1nc2sccn2c(=O)c1CCN1CCC(=C(c2ccccc2)c2ccc(F)cc2)CC1 has Split Luciferase Assay Z-score Set 1 of -1.91

Per the record, Cl.N[C@@H](Cc1ccc(N(CCCl)CCCl)cc1)C(=O)O [Melphalan hydrochloride] has Split Luciferase Assay Z-score Set 1 of -1.64

* * *

test system: Clone V cells
Reported Endpoint: Toxicity Assay % Fluor (%)
// return numeric value only (unit: %, not printed)

Per the record, O=S(=O)(NCCNC/C=C/c1ccc(Br)cc1)c1cccc2cnccc12 [H-89, reference compound] has Toxicity Assay % Fluor of 91.80

Per the record, CO[C@H]1/C=C\C=C(/C)C(=O)NC2=CC(=O)C(NCCN(C)C)=C(C[C@@H](C)C[C@H](OC)[C@H](O)[C@@H](C)/C=C(\C)[C@@H]1OC(N)=O)C2=O has Toxicity Assay % Fluor of 54.29

Per the record, Cc1cccc(Nc2nc(-c3ccncc3)cs2)c1 has Toxicity Assay % Fluor of 98.46

Per the record, Cc1cn(-c2cc(NC(=O)c3ccc(C)c(Nc4nccc(-c5cccnc5)n4)c3)cc(C(F)(F)F)c2)cn1 has Toxicity Assay % Fluor of 88.70

Per the record, O=C(O)C(=O)O.[NH-][C@@H]1CCCC[C@H]1[NH-].[Pt+2] has Toxicity Assay % Fluor of 90.53

Per the record, OCCn1cc(-c2cnc3nnn(Cc4ccc5ncccc5c4)c3n2)cn1 has Toxicity Assay % Fluor of 99.86

Per the record, CCc1cc(Nc2nccc(-c3c(-c4ccc(OC)c(C(=O)Nc5c(F)cccc5F)c4)nc4ccccn34)n2)c(OC)cc1N1CCC(N2CCN(S(C)(=O)=O)CC2)CC1 [GSK1904529A] has Toxicity Assay % Fluor of 100.76

* * *

Assignment: determine reported Split Luciferase Assay %Lum Avg for the given compounds.
biological target: FGF14:Nav1.6 C-tail complex (Homo sapiens, UniProt Q92915+Q9UQD0); construct: polymerase chain reaction (PCR) amplification of the FGF14 open reading frame (nt 1–855); C-terminal fragment of Nav1.6 (amino acids 1763–1976) fused with CD4ΔC-tail (amino acids 1–395); expressed in transfected cells; experiment: Split-luciferase complementation assay (LCA) in Clone V double stable HEK293 cells; assay type: cell-based
Structures can show the parent of a compound that is named as a salt.
// return numeric value only (unit: %, not printed)

Short answer on FGF14:Nav1.6 C-tail complex (Homo sapiens, UniProt Q92915+Q9UQD0) for C[S+]([O-])c1ccc(-c2nc(-c3ccncc3)c(-c3ccc(F)cc3)[nH]2)cc1 (centres unmarked) [SB 203580, reference compound] , Split Luciferase Assay %Lum Avg: 152.42

Short answer on FGF14:Nav1.6 C-tail complex (Homo sapiens, UniProt Q92915+Q9UQD0) for CC[C@H](CO)Nc1nc(NCc2ccccc2)c2ncn(C(C)C)c2n1 , Split Luciferase Assay %Lum Avg: 39.88

Short answer on FGF14:Nav1.6 C-tail complex (Homo sapiens, UniProt Q92915+Q9UQD0) for O=NN(CCCl)C(=O)NC1CCCCC1 , Split Luciferase Assay %Lum Avg: 116.25

Short answer on FGF14:Nav1.6 C-tail complex (Homo sapiens, UniProt Q92915+Q9UQD0) for CC/C(=C(\c1ccccc1)c1ccc(OCCN(C)C)cc1)c1ccccc1 [Tamoxifen citrate] , Split Luciferase Assay %Lum Avg: 2.86

Short answer on FGF14:Nav1.6 C-tail complex (Homo sapiens, UniProt Q92915+Q9UQD0) for CC1=C2C[C@H]3[C@@H](CC=C4C[C@@H](O)CC[C@@]43C)[C@@H]2CC[C@]12O[C@@H]1C[C@H](C)CN[C@H]1[C@H]2C , Split Luciferase Assay %Lum Avg: 122.84

* * *

Assignment: determine reported Split Luciferase Assay % Lum Set 1 for the given compounds.
biological target: FGF14:Nav1.6 C-tail complex (Homo sapiens, UniProt Q92915+Q9UQD0); construct: polymerase chain reaction (PCR) amplification of the FGF14 open reading frame (nt 1–855); C-terminal fragment of Nav1.6 (amino acids 1763–1976) fused with CD4ΔC-tail (amino acids 1–395); expressed in transfected cells; experiment: Split-luciferase complementation assay (LCA) in Clone V double stable HEK293 cells; assay type: cell-based; details: CC_NCI screening; LCA luminescence, biological replicate Set 1; normalized to on-plate 0.3% DMSO controls (n=16 per plate)
Structures can show the parent of a compound that is named as a salt.
// return numeric value only (unit: %, not printed)

Per the record, CCCS(=O)(=O)Nc1ccc(F)c(C(=O)c2c[nH]c3ncc(-c4ccc(Cl)cc4)cc23)c1F [PLX4032] has Split Luciferase Assay % Lum Set 1 of 51.42

Per the record, CC[C@]1(O)C[C@H]2CN(CCc3c([nH]c4ccccc34)[C@@](C(=O)OC)(c3cc4c(cc3OC)N(C=O)[C@H]3[C@@](O)(C(=O)OC)[C@H](OC(C)=O)[C@]5(CC)C=CCN6CC[C@]43[C@@H]65)C2)C1 [Vincristine sulfate] has Split Luciferase Assay % Lum Set 1 of 200.35

Per the record, COC1=CC(c2cc3ccccc3[nH]2)=N/C1=C\c1[nH]c(C)cc1C has Split Luciferase Assay % Lum Set 1 of 59.03

Per the record, COc1cc2/c(=N/c3ccc(Br)cc3F)nc[nH]c2cc1OCC1CCN(C)CC1 has Split Luciferase Assay % Lum Set 1 of 85.12

Per the record, NC1(c2ccc(-c3nc4ccn5c(=O)[nH]nc5c4cc3-c3ccccc3)cc2)CCC1 has Split Luciferase Assay % Lum Set 1 of 48.16

Per the record, CC(C)(C#N)c1cc(Cn2cncn2)cc(C(C)(C)C#N)c1 has Split Luciferase Assay % Lum Set 1 of 89.47

Per the record, C[C@]12CC[C@@H]3c4ccc(O)cc4C[C@@H](CCCCCCCCC[S+]([O-])CCCC(F)(F)C(F)(F)F)[C@H]3[C@@H]1CC[C@@H]2O (stereo partly shown) has Split Luciferase Assay % Lum Set 1 of 94.90
